Measured values drawn from the RNAGym collection of RNA variant scans (doi:10.1038/s41586-018-0170-7) for this set.

B1: tRNA (parent)
chain: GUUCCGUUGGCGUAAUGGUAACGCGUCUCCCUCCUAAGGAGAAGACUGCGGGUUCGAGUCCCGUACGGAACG

variants of: B1; assay: yeast fitness, log relative to wild type (ln ratio); higher = fitter; tRNA-Arg(CCU), competitive growth, 37 C, 1 M NaCl
Values of yeast fitness (ln) greater than or equal to -0.2 map to Criterion met; values below map to Criterion not met.

Ask: Assess whether reported yeast fitness (ln) for G1A U2G A69G C71U sits at -0.2 or higher.
Reply: Criterion met

Ask: Entry U2G C27U A43C C46U C66A A69G A70G C71U : is its yeast fitness (ln) no less than -0.2?
Reply: Criterion met

Ask: Exam item: decide whether the reported yeast fitness (ln) for U2C G6U A43C C46U C66U A70U is at least -0.2.
Reply: Criterion met

Ask: Determine whether this variant has yeast fitness (ln) no lower than -0.2: U2G G6A C27U C46U C66U A70G C71U
Reply: Criterion met

Ask: Can G6A C27U A43C C46U A70U C71U be said to have yeast fitness (ln) at or above -0.2?
Reply: Criterion not met

Ask: Evaluate G6U C27U C46U A69G C71U : yeast fitness (ln) at minimum -0.2?
Reply: Criterion not met

Ask: Say whether G1A U2G G6A C27U C66U A69G A70U C71U shows yeast fitness (ln) of -0.2 or more.
Reply: Criterion not met

Ask: Please indicate if the recorded yeast fitness (ln) for U2G G6U C27U C46U A70G C71U meets or exceeds -0.2.
Reply: Criterion not met

Ask: # check: yeast fitness (ln) of G1A A43C C46U A69G is greater than or equal to -0.2
Reply: Criterion not met

Ask: State whether the measured yeast fitness (ln) reaches -0.2, counting equality as reaching it, for U2G G6U C27U A43C C66A A70U
Reply: Criterion met

Ask: Identify whether the reported yeast fitness (ln) of the following variant is -0.2 or greater: G1A C27U C46U C66U A69G A70G
Reply: Criterion not met

Ask: Dear colleague, could you confirm whether U2G G6A C27U A43C A69G A70U has yeast fitness (ln) at or above -0.2?
Reply: Criterion not met

Ask: Form field: yeast fitness (ln) at least -0.2? Entry: U2G G6A C27U A43C C66U A69G C71U
Reply: Criterion not met

Ask: Evaluate G1A U2G C27U A43C C66A C71U : yeast fitness (ln) at minimum -0.2?
Reply: Criterion not met

Ask: // inclusive: yeast fitness (ln) at least -0.2? input: G1A U2G G6A A43C A70G
Reply: Criterion not met

Ask: Has C46U C66U A70U C71U a recorded yeast fitness (ln) greater than or equal to -0.2?
Reply: Criterion met

Ask: Is it the case that U2G C27U A43C C46U C66U A69G C71U has yeast fitness (ln) reaching or exceeding -0.2?
Reply: Criterion not met

Ask: Please check the record G1A G6U C27U C66A A69G A70U C71U and state if its yeast fitness (ln) is at or above -0.2.
Reply: Criterion not met

Ask: Form field: yeast fitness (ln) at least -0.2? Entry: U2C G6A A43C C46U C66U A69G A70G
Reply: Criterion met

Ask: Say whether U2C C66U A69G C71U shows yeast fitness (ln) of -0.2 or more.
Reply: Criterion not met

Ask: Could you please find out whether U2G A43C C66A A69G A70U has yeast fitness (ln) that meets -0.2 or exceeds it?
Reply: Criterion not met

Ask: Check the entry U2G C27U C46U C66U A69G A70G C71U : does yeast fitness (ln) equal or exceed -0.2?
Reply: Criterion not met

Ask: # bool: yeast fitness (ln) of U2C G6A A43C C46U A69G A70G C71U >= -0.2
Reply: Criterion met

Ask: Assess whether reported yeast fitness (ln) for G1A U2G C27U A43C C66U A69G A70G C71U sits at -0.2 or higher.
Reply: Criterion not met

Ask: Is reported yeast fitness (ln) greater than or equal to -0.2 here: G1A U2G C27U A43C A70G C71U
Reply: Criterion not met

Ask: Is yeast fitness (ln) for G6A A43C C46U C66A C71U at or above -0.2?
Reply: Criterion not met

Ask: Answer whether yeast fitness (ln) of G1A G6A C27U C46U C66A A70G is greater than or equal to -0.2.
Reply: Criterion not met

Ask: Decide: yeast fitness (ln) of U2C G6A A69G A70G >= -0.2?
Reply: Criterion met

Ask: Assess whether reported yeast fitness (ln) for G6A C27U A43C C46U C66U A69G sits at -0.2 or higher.
Reply: Criterion met

Ask: Check if yeast fitness (ln) >= -0.2 (inclusive). Item: G1A U2G G6U C27U A43C C66U A70G
Reply: Criterion not met

Ask: # check: yeast fitness (ln) of U2G G6A C27U A43C C66A A69G A70G C71U is greater than or equal to -0.2
Reply: Criterion not met

Ask: Is yeast fitness (ln) at least -0.2? Consider G6A A43C C66A A70G C71U
Reply: Criterion not met

Ask: Tell me whether yeast fitness (ln) is at least -0.2 here: U2G C27U A43C A69G A70G
Reply: Criterion not met

Ask: Does U2G G6U A43C C46U C66A A70U have a reported yeast fitness (ln) of at least -0.2?
Reply: Criterion met

Ask: Threshold query (yeast fitness (ln) >= -0.2) on U2C C27U C46U C66U A70U
Reply: Criterion met

Ask: Check this variant for yeast fitness (ln) at or above -0.2: G1A G6U C27U C66U A69G A70U
Reply: Criterion not met

Ask: API: above_or_equal(metric=yeast fitness (ln), cutoff=-0.2) for item A43C C46U
Reply: Criterion met

Ask: Reported yeast fitness (ln) at or above -0.2? G1A G6A C66U A70U C71U
Reply: Criterion not met

Ask: Hello, I need to know if G6U C27U A43C A69G A70G has measured yeast fitness (ln) not below -0.2. Thanks!
Reply: Criterion not met

Ask: Tell me whether yeast fitness (ln) is at least -0.2 here: U2C G6A C27U C46U A70G
Reply: Criterion met

Ask: Does yeast fitness (ln) meet or surpass -0.2 for G6U A43C C46U C66A A69G A70G C71U ?
Reply: Criterion met

Ask: // inclusive: yeast fitness (ln) at least -0.2? input: G1A G6A A43C C46U C66A A70U
Reply: Criterion met

Ask: # check: yeast fitness (ln) of C27U A43C C46U C66A A70G C71U is greater than or equal to -0.2
Reply: Criterion met

Ask: Threshold query (yeast fitness (ln) >= -0.2) on G1A U2G C46U C66A A69G A70U C71U
Reply: Criterion not met

Ask: Does yeast fitness (ln) meet or surpass -0.2 for U2G G6A A43C C66U A69G C71U ?
Reply: Criterion not met

Ask: Test whether the variant G6A C46U C66U C71U records yeast fitness (ln) of -0.2 or higher.
Reply: Criterion met
